- Assay overview: yeast display, Sf9 membrane polyspecificity reagent, FACS + sequencing; frameworks hold sequencing errors
Measured metric: polyreactivity (PSR sort gate)

Record excerpt, results attached:
[[record]]
sequence_text = "QVQLHESGGGLVQAGGSLRLSCAASGTISYAGPMGWYRQAPGKEREFVAGIGVGSNTNYADSVKGRYTIIRDNAKNTVYLQMNSLNPEDTAVYYCAVGGYDPLGRPYWGQGTQVTVSS"
reported_result = "low polyreactivity"

[[record]]
sequence_text = "QVQLVESGAGLVQAGGSLRLSCAASGFTFSRNAMGWYRPAPGKERELVASISGRGGRTYYADSVKGRFTISRDNAKKTVYLQMNSLKPEATAVYFCAARWRQRKSVRYGQQGYDYWGQGTQVTVSS"
reported_result = "high polyreactivity"

[[record]]
sequence_text = "QVQLVESGGGLVQAGGSLRLSCAASGFIFYTYAMGWYRQAPGKERELVAAISRGGRTNYADSVKGRFTISRDNAKNTVYLQMNSLKPEDTAVYYCASSYSHRYDYWGQGTQVTVSS"
reported_result = "high polyreactivity"

[[record]]
sequence_text = "QVQLVESGGGLVQAGGSLRLSCAASGNTFGNYGMGWYRQAPGKEREFVAAITSRGTSTYYADSVKGRFTISRDNAKYTVYLQMNSLKPEDTAVYYCNARPRYKYPRYDYWGQGTQVTVSS"
reported_result = "high polyreactivity"

[[record]]
sequence_text = "QVQLVESAGGLVQAGGSLRLSCPASGSTFTFNAMGWYRQAPGKERELVADITSGGRTNYADSVKGRFTISRDNAKNTVYLQMNSLKPEDTAVYYCAARWWAHEYPGYDSWGQGTQVTVSS"
reported_result = "low polyreactivity"


Batch of 3 sequences: report polyreactivity (PSR sort gate) for each.
1. QVQLVESGGGLVQAGGSLRLSCAASGSIIYHYAMGWYRQAPGKERELVAAITSSGGSTYYADSVKGRFTISRDNAKNTVYLQMNSLKPEDTEVYYCAVESRGRAGGNYWGQGTQVTVSS
2. QVQLVESGGGLVQAGGSLRLSCAASGSTFAVYAMGWYRQAPGKERELVAVISRGANTNYADSVKGRFTISRDNAKNTVYLQMNSLKPEDTAVYYCAAPSYFTHRGRFDYWGQGTQVTVSS
3. QVQLVESCGGLVQAGGSLRLSCAASAWYAIGWYRQAPGKEREFVAAITFSGSSTYYADSVKGRFTISRDNAKNTVYLQMNSLKPEDTAVYYCNADWWEWGQGTQVTVSS

1: low polyreactivity; 2: low polyreactivity; 3: low polyreactivity

Could you tell me polyreactivity (PSR sort gate) for each of these sequences? They are listed below.
1. QVQHVESGGGLVQAGGSLRLSCAASGRTFKYNAMGWYRQAPGKEWELVAVIRYSGGTTYYADSVKGRFTISRDNAKNTVYLQMNSLKPEDTAVYYCAADSWSRSVNYYYWVQGTQVTVSS
2. QVQLVESGGGLVQAGGSLRLSCAACGGTFGNYAMGWYRQAPGKDRELVAAISTRGGSTYYADSVKGRFTISRDNAKNTVYLQMNSLKPEDTAVYYCNARIKRPRGVYGGDYWGQGTQVTVSS
3. QVQLVESGGGLVQAGGSLRLSCAASGIIFERYAMGWYRQAPGKERELVATISWSGGSTRYADSVKGRFTISRDNAKNTVYLQMNSLKPEDTAVYYCAAPSYFRMGYWGQGTQVTVSS
4. QVQLVESGGGLVQAGGSLRLSCAASGFTFVSYAMGGYRQAPGKERELVASISSGGSTYYADSVKGRFTISRDNAKNTVYLQMNSLKPEDTAVYYCAAYSRWGRWFTIYNYWGQGTQVTVSS
5. QVQLVESGGGLVQAGGSLRLSCAASGRTFKYYTMGWYRQAPGKERELVAGINGGGGSTYYADSVKGRFTISRDNAKNTVYLQMNSMKPEDTAVYYCAVDPFAYFSYWTYDYWGQGTQVTVSS

["low polyreactivity", "high polyreactivity", "low polyreactivity", "high polyreactivity", "high polyreactivity"]

Below are some sequences; for each one, tell me its polyreactivity (PSR sort gate).
1. QVQLVESGGGLVQAGGSLRLSCAASGSIFYYYAMGWYRQAPGKERELVADISISGGSTYYADSVKGRFTISRDNAKNTVYLQMNSLKPEDTAVYYCAATDYLWEPTVSNWGYTFDSWGQGTQVTVSS
2. QVQLVESWGGLVQAGGSLRLSCAASGSIFYTNVMGWYRQAPGKERELVARIDSGGSTNYADSVKGRFTISRDNAKNTVYLQMNSLKPEDTAVYYCAADWYIYDYWGQGTQVTVSS

low polyreactivity
low polyreactivity

Batch of 6 sequences: report polyreactivity (PSR sort gate) for each.
1. QVQLVESGGGLVQAGGSLRLSCAASGFTFFSNAMGWYRQAPGKERELVAAITSSGGSTYADSVKGRFTISRDNAKNTVYLQMNSLKPEDTAVYYCAADALAPPGGFKEYDYWGQGTQVTVSS
2. QVQLVESGVGLVQAGGSLRLSCAASGRTLSKNAMGWYRQAPWKERELVATMSSVGRTNYADSVKGRFTISRDNAKNTVYLQMNSLKPEDTAVYYCAARRFRGSYYWGQGTQVTVSS
3. QVQLVESGGGLVQAGGSLRLSCAASGSTFVTYARGWYRQAPGKERELVAAISRRAGRTYYADSVKGRFTISRDNAQNTVSLQMNSLKPEDTAVYYCAKQAYEAFYTGDDYDYWGQGTKVTVSS
4. QVQLVESGGGLVQAGGSLRLSCAASGSTCVNNDMGLYRQAPGKEGELVAGITTSGGSTYYADSVKGRFTISRDKAKNTVYLQMNSLKPEDTAVYYCAARAFSAWLEMDYWGQCTQVTVSS
5. QGQLLESAGGLLQAGGSLRLSSAASGFNFQQYVMGWYRQARGNERELVASISRRGSRTYYADSVKGGFTISRDNAKNTVYLQMNSLKPEDTAVYYCAAPPSTSEGPYGYWGQGTQVSVSS
6. QVQLVESGGVLDQAGGSLRLRCAASGSTYYRNAMGWYRQAPGKERELVATINRGGSTYYADSVKWRFTISRDNAKNTVYLQMNSLKPEDPAVYYWAKDPYYAGRYRGDYWGQGTQVTVSS

1: low polyreactivity; 2: high polyreactivity; 3: high polyreactivity; 4: low polyreactivity; 5: high polyreactivity; 6: high polyreactivity

* * *

- Assay overview: yeast display, Sf9 membrane polyspecificity reagent, FACS + sequencing; frameworks hold sequencing errors
Measured metric: polyreactivity (PSR sort gate)

[[record]]
sequence_text = "QVQLQESGGGQVQAGGSLRPSCAASGSISDRVPMGWYRQAPGEERELVATTVLGATTNYADSVKGRFTISRGNAKNTVYLQMNSLKPEETAVYYCAAPLRYDKGFSYWGEGTQVTVSS"
reported_result = "low polyreactivity"

[[record]]
sequence_text = "QVQLVESGGGLVQAGGSLRLSCAASGFIFSYYAMGWYRQAPGKEREFVAAISRRGGSTYYADSVKGRFTISRDNAKNTVYLQMISLKPDDSAVYYCARRRTSTAVREHYYRDWYGYDYWGQGTQVTVSS"
reported_result = "high polyreactivity"

[[record]]
sequence_text = "QGQLVESGGGLVQAGGSLRLSCAASGSTFRLYAMGWYRQAPGKERELVAAISQRGASTYADSVKGRFTISRDNAKNTLNLQMNSLKPEDTAFYYCSAVRNCRYWYRQYGFCGQGTQVTVSS"
reported_result = "high polyreactivity"

[[record]]
sequence_text = "QVQLVESGGGLVQSGGSLRLTCAASGFTFYDYDMGWYRQAPGKERELVATITWSVGRTYYADSVKGRFTISRDTAKNTVYLQMNSLKPEDTAVYYCAADEPDRDYGYWGQGTQVTVSS"
reported_result = "low polyreactivity"

[[record]]
sequence_text = "QVQLVESGGGLVQAGGSLRLSCAASGITFYQYAMGWYRQAPGTETELVAGISYSGGSTYYADSVKGRFTISRDNAKNTVYLQMNSLKPEDTAVYYCAAVQPVGLYPRTKYYYWGQGTQVTVSS"
reported_result = "high polyreactivity"

[[record]]
sequence_text = "QVQLVESGGGLVQAGGSLRLSCAASGSNFFSNAMGWYRQAPGKERELVAAITSSGASTYYADSVKGRFTISRDNAKNTVYLQMNSLKPEDTAVYYCAVVGGGKRYGYWGQGTQVTVSS"
reported_result = "high polyreactivity"

[[record]]
sequence_text = "QDQLVESGGGLVQAGGSLRLSCAASGRLIPSYVMGGYRPAQGKETEFVAGIRRGGGSTYYADSVKGRFTISRDNAKNTVYLQMNSLKPEDTAVYYSAAVKYSRPGVYHGHDSWRQGTQVTVSS"
reported_result = "high polyreactivity"

[[record]]
sequence_text = "QVQLVESGGGLVQAGGSLRLSCAASGRIFSGNTMGWYRPAPGKERELVAAISKSGGRTYYADSVKGRFPISRVNAKNTVYLQMNSLKPEDTAVYYCNADYRSHYLYDYWGQGTQVTVSS"
reported_result = "low polyreactivity"


Parameter requested: polyreactivity (PSR sort gate). Apply to each item below.
1. QVQLVESGGGLVQAGGSLRLSCAASGLTFGWNAMGWYRQAPGKERELVAGITSDTITHYADSVKGRFTISRDNAKNTVYLQMNSLKPEDTAVYYCAVPRGVASLQKVEFGYWGQGTQVTVSS
2. QVQLVESGGGLVQAGGSLRLSCAASGRTFFRYARGGYRQAPGKERELVAAISVSGASTNYADSVKGRFTISRDNAKNTGYLQMNSQKPEDTAVYYCAARVADYDGVPLYRHGDYWGPGTQVTVSS
3. QVQLVESGGGLVQAGGSLRLSCAASGLTFLGNAMGWYRQAPGKERELVASITFSGDSTYYADSVKGRFTISRDNAKNSVYLQMNSVKPEDTAVYYCAADGSRLYYWPFEYDYWGQGTQVTVSS

["low polyreactivity", "low polyreactivity", "low polyreactivity"]
